Reference source: the supplement of paper PMC7125110

B1: glmS ribozyme (parent)
chain: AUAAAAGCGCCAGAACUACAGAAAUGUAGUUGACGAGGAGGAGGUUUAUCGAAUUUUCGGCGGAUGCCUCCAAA

variants of: B1; assay: self-cleavage kobs at 10000 uM GlcN6P; higher = faster cleavage; RNA array; conditions: with glucosamine-6-phosphate
This sample holds only a part of the variants without activity.
# self-cleavage kobs at 10000 uM GlcN6P values compiled below

Worked examples follow.
Query block: Reported self-cleavage kobs at 10000 uM GlcN6P for AUAAAAGCGCCAGAACUACAGAAAUGUAGUUGUCGAGGUGGAGCUUUAUCGAAUUUUCGGCGCAUGGCUCCAAA : what is it?
Result block: < 1e-05 s⁻¹

Query block: Next record, please: AUAAAAGCGCCAGAACUACAGAAAUGUAGUUAGCGAGGAGGAGGUUUAUAGAAUUUUCGGCGGAUGCCUCCAAA
Result block: < 1e-05 s⁻¹

Query block: Can you handle AUAAAAGCGCCAGAACUACAGAAAUGUAGUUGACGAGGAGGAGGUUUAUGGUAUUUUCGGCGGAUGCCUCCAAA next?
Result block: < 1e-05 s⁻¹

Query block: Could you do the same for AUAAAAGCGCCAGAACUACAGAAAUGUAGUUGUCGAGGAGGAGGUUUAACGAAUUUUCGGCGGAUGCCUCUAAA , please?
Result block: < 1e-05 s⁻¹

Field: next variant
Query block: For the variant shown here, AUAAAAGCGCCAGAACUACAGAAAUGUAGUUGACGAGGAGGAGGGUUAUCGAAUUUUCGGCAGAUGCCUCCAAA , give the reported self-cleavage kobs at 10000 uM GlcN6P.
Result block: < 1e-05 s⁻¹
